apparent KD of MS2 coat protein overview
- Tested on: MS2 coat protein
- Method Description: apparent KD of MS2 coat protein; higher = weaker reporter binding
- Conditions: Eterna round: R107; input ligand: tryptophan 2.4 mM
Write your answer as a measured quantity: the number, then the unit.

Fill in the recorded apparent KD of MS2 coat protein for this sequence, with MS2 coat protein as test system: UAUCUAACGAAGGAUACCAGUACAUGAGAGUACAUGAGGAUCACCCAUGUUAGAUACGGGUACCCUUGGCAGCCUCACCUACACC [theeternabot_sameState_MS2_Theo_B_11]
0.058 µM

What apparent KD of MS2 coat protein appears in the records for this sequence with MS2 coat protein? GAUAGUUGAAGGGAUACCAGCCUGGACAUGAGGAUCACCCAUGUAGCAUGUUUGAAACUGGGCCCUUGGCAGCCCAUAUUGUGUA [#11 Same State - Theophylline B]
0.0228 µM

What value of apparent KD of MS2 coat protein on MS2 coat protein does AACCGAGGCUAUCCUCUAAGAAAAUGUGAUACCAGAAUAAUUUUAUUCCCUUGGCAGCAUGACAUGAGGAUCACCCAUGUGUCUU [SSTheo A #6] have?
0.138 µM

For MS2 coat protein, provide apparent KD of MS2 coat protein of UUCUGGACCCGUGAUACCAGAGACAUGAGGAUCACCCAUGUACAUGAGGAUCACCCAUGUCUCCCUUGGCAGCACUGCAGGGAGC [Exclusion Theophylline B GF 14] please.
0.133 µM

Form entry - test system: MS2 coat protein; read-out: apparent KD of MS2 coat protein; sequence: UAUGCACAUGAGGAUCACCCAUGUAUGGAAGGAGCGGUGAAUGAACCAGGUAGGUCGCCAUGGUGAGGAUCAUCUAUGUAAUCGU [Exclusion - Arginine A (Freestyle 7)]
0.0868 µM
